- System: ALK2R206H (mutant ALK2, N-terminally tagged with GST) (Homo sapiens, UniProt Q04771, R206H)
- Sequence (Q04771 21-509 R206H): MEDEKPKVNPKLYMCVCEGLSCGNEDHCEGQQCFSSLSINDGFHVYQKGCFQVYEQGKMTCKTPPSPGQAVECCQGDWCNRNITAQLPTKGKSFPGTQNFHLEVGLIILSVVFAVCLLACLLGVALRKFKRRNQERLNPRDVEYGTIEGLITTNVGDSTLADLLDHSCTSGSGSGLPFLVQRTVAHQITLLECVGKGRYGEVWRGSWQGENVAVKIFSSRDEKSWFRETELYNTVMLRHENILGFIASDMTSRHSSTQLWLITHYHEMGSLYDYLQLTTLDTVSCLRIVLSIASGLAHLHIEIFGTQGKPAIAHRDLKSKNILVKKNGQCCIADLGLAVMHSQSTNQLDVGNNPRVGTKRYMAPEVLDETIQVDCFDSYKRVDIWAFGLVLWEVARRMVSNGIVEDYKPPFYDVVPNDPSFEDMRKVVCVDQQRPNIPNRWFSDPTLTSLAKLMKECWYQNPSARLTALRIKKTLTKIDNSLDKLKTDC
- Assay Protocol: ALK binding assay (LANTHASCREEN TR-FRET competitive binding, displacement of Kinase Tracer 178)
- Condition Details: read-out: Binding Assay (IC50 class)
pIC50: −log10 of the molar value.
Measured Quantity: pIC50

Look over these answered cases.
Cn1cc(-c2cc3c(N4CCN(C(=O)C5CC5)CC4)ccnc3[nH]2)cn1: ≥ 8.00
CC(C)Oc1ccc(-c2cc3c(N4CCN(C(=O)C5CC5)CC4)ccnc3[nH]2)c(Cl)c1: 7.30 to 8.00
Cc1nc(-c2[nH]c3nccc(N4CCN(C(=O)OC5COC5)CC4)c3c2Cl)cn1C: ≥ 8.00

Lab note: next compound to report on.
The compound identified as `CC(C)N1CCC(c2ccc(-c3cc4c(N5CCN(C(=O)OC6COC6)CC5)ccnc4[nH]3)cc2)CC1` registered its pIC50 at ≥ 8.00

* * *

- System: ALK2R206H (mutant ALK2, N-terminally tagged with GST) (Homo sapiens, UniProt Q04771, R206H)
- Assay Protocol: ALK binding assay (LANTHASCREEN TR-FRET competitive binding, displacement of Kinase Tracer 178)
- Condition Details: read-out: Binding Assay (IC50 class)
pIC50: −log10 of the molar value.
Measured Quantity: pIC50

N#Cc1ccc(-c2cc3c(N4CCN(C(=O)OC5COC5)CC4)ccnc3[nH]2)cc1 [Compound 188]: ≥ 8.00
O=C(OC1COC1)N1CCN(c2ccnc3[nH]c(-c4ccc([C@]5(O)CCOC5)cc4)cc23)CC1 [Compound 429]: ≥ 8.00

The compound identified as Cc1ccc(-c2cc3c(N4CCN(C(=O)C5CC5)CC4)ccnc3[nH]2)c(F)c1 [Compound 63] registered its pIC50 at 7.30 to 8.00

The compound identified as CC(C)(C#N)n1cc(-c2cc3c(N4CCN(C(=O)OC5COC5)CC4)ccnc3[nH]2)cn1 [Compound 351] registered its pIC50 at ≥ 8.00

* * *

- System: ALK2R206H (mutant ALK2, N-terminally tagged with GST) (Homo sapiens, UniProt Q04771, R206H)
- Assay Protocol: ALK binding assay (LANTHASCREEN TR-FRET competitive binding, displacement of Kinase Tracer 178)
- Condition Details: read-out: Binding Assay (IC50 class)
Measured Quantity: IC50

Look over these answered cases.
O=C(C1CC1)N1CCN(c2ccnc3[nH]c(-c4ccc(OCc5ccccc5)cc4)cc23)CC1: 10 to 50 nM
Cn1cnc(-c2[nH]c3nccc(N4CCN(C(=O)OC5COC5)CC4)c3c2C#N)c1: ≤ 10 nM
CCN1CCN(c2ccc(-c3cc4c(N5CCN(C(=O)C6CC6)CC5)ccnc4[nH]3)c(OC(F)F)c2)CC1: ≤ 10 nM

The compound identified as `O=C(OC1COC1)N1CCN(c2ccnc3[nH]c(-c4csc(N5CCC(O)CC5)n4)cc23)CC1` registered its IC50 at ≤ 10 nM

The compound identified as `N#Cc1c(-c2cn3c(n2)CCC3)[nH]c2nccc(N3CCN(C(=O)OC4COC4)CC3)c12` registered its IC50 at ≤ 10 nM

The compound identified as `Cn1cnc(-c2[nH]c3nccc(N4CCN(C(=O)OC5CC(F)(F)C5)CC4)c3c2C#N)c1` registered its IC50 at ≤ 10 nM

The compound identified as `CCOC(=O)N1CCN(c2ccnc3[nH]c(-c4ccccn4)cc23)CC1` registered its IC50 at ≤ 10 nM

The compound identified as `Cc1nnc(-c2cc3c(N4CCN(C(=O)OC5COC5)CC4)ccnc3[nH]2)o1` registered its IC50 at 10 to 50 nM

The compound identified as `Cn1cc(-c2cc3c(N4CCN(C(=O)C(C)(C)CO)CC4)ccnc3[nH]2)cn1` registered its IC50 at 10 to 50 nM

The compound identified as Cc1nc(-c2[nH]c3nccc(N4CCN(C(=O)OC5CCC5(F)F)CC4)c3c2C#N)cn1C (stereo not shown) registered its IC50 at ≤ 10 nM
